Tested on: Staphylococcus aureus
procedure_summary: Antibacterial activity against erythromycin-resistant, methicillin-susceptible Staphylococcus aureus A265 by broth microdilution method
Type: functional
The compounds listed here are annotated with their MIC.
Number first, unit second.

smiles_repr	experimental_system	observed_property	result
CC[C@H]1OC(=O)[C@H](C)[C@@H](OC(=O)NC2CCCCC2)[C@H](C)[C@@H](O[C@@H]2O[C@H](C)C[C@H](N(C)C)[C@H]2O)[C@](C)(OC)C[C@@H](C)C(=O)[C@@H](C)[C@@H](OC)[C@]1(C)O	Staphylococcus aureus	MIC	2 µg/mL
CC[C@H]1OC(=O)[C@H](C)[C@@H](OC(=O)NCCc2ccc(O)cc2)[C@H](C)[C@@H](O[C@@H]2O[C@H](C)C[C@H](N(C)C)[C@H]2O)[C@](C)(OC)C[C@@H](C)C(=O)[C@@H](C)[C@@H](OC)[C@]1(C)O	Staphylococcus aureus	MIC	2 µg/mL
CC[C@H]1OC(=O)[C@H](C)[C@@H](OC(=O)NCCc2ccccc2)[C@H](C)[C@@H](O[C@@H]2O[C@H](C)C[C@H](N(C)C)[C@H]2O)[C@](C)(OC)C[C@@H](C)C(=O)[C@@H](C)[C@@H](OC)[C@]1(C)O	Staphylococcus aureus	MIC	8 µg/mL
CCCCNC(=O)O[C@H]1[C@H](C)[C@@H](O[C@@H]2O[C@H](C)C[C@H](N(C)C)[C@H]2O)[C@](C)(OC)C[C@@H](C)C(=O)[C@@H](C)[C@@H](OC)[C@](C)(O)[C@@H](CC)OC(=O)[C@@H]1C	Staphylococcus aureus	MIC	1 µg/mL
CC[C@H]1OC(=O)[C@H](C)[C@@H](OC(=O)NCc2ccc(C)cc2)[C@H](C)[C@@H](O[C@@H]2O[C@H](C)C[C@H](N(C)C)[C@H]2O)[C@](C)(OC)C[C@@H](C)C(=O)[C@@H](C)[C@@H](OC)[C@]1(C)O	Staphylococcus aureus	MIC	0.125 µg/mL
CC[C@H]1OC(=O)[C@H](C)[C@@H](OC(=O)NCCc2ccccc2Br)[C@H](C)[C@@H](O[C@@H]2O[C@H](C)C[C@H](N(C)C)[C@H]2O)[C@](C)(OC)C[C@@H](C)C(=O)[C@@H](C)[C@@H](OC)[C@]1(C)O	Staphylococcus aureus	MIC	4 µg/mL

Query CC[C@H]1OC(=O)[C@H](C)[C@@H](O[C@H]2C[C@@](C)(OC)[C@@H](O)[C@H](C)O2)[C@H](C)[C@@H](O[C@@H]2O[C@H](C)C[C@H](N(C)C)[C@H]2O)[C@](C)(O)C[C@@H](C)CN(C)[C@H](C)[C@@H](O)[C@]1(C)O yields MIC of 8 µg/mL

Query CCCNC(=O)O[C@H]1[C@H](C)[C@@H](O[C@@H]2O[C@H](C)C[C@H](N(C)C)[C@H]2O)[C@](C)(OC)C[C@@H](C)C(=O)[C@@H](C)[C@@H](OC)[C@](C)(O)[C@@H](CC)OC(=O)[C@@H]1C yields MIC of 1 µg/mL

Query CC[C@H]1OC(=O)[C@H](C)[C@@H](OC(=O)NCc2ccco2)[C@H](C)[C@@H](O[C@@H]2O[C@H](C)C[C@H](N(C)C)[C@H]2O)[C@](C)(OC)C[C@@H](C)C(=O)[C@@H](C)[C@@H](OC)[C@]1(C)O yields MIC of 1 µg/mL
